Hello, the source for this data is PubChem BioAssay AID1259407, in case you need it.

Tested on: CCRIS mutagenicity, Ames/micronucleus/aberration tests
Test: CCRIS mutagenicity studies
Conditions: Test System: AMES SALMONELLA TYPHIMURIUM; Strain/Indicator: TA100; Metabolic Activation: NONE; Method: PREINCUBATION
Calls of active or inactive are those of the source. No rule for the calls is given here.
Possible outcomes: true (active), false (inactive)

compound	experimental-target	class-label
CCO	CCRIS mutagenicity, Ames/micronucleus/aberration tests	false
CCCCCCCCCCCCCC(=O)O	CCRIS mutagenicity, Ames/micronucleus/aberration tests	false
COC(C)(C)CC(C)=O	CCRIS mutagenicity, Ames/micronucleus/aberration tests	false
c1ccc2c(CCC3CO3)cccc2c1 (stereo not given)	CCRIS mutagenicity, Ames/micronucleus/aberration tests	true
Cc1ccc(S(=O)(=O)NN)cc1	CCRIS mutagenicity, Ames/micronucleus/aberration tests	true

* * *

Tested on: CCRIS mutagenicity, Ames/micronucleus/aberration tests
Assay: CCRIS mutagenicity studies
Details: Test System: AMES SALMONELLA TYPHIMURIUM; Strain/Indicator: TA100; Metabolic Activation: RAT, LIVER, S-9, AROCLOR 1254; Method: STANDARD PLATE
The source made the active and inactive calls. How the calls were made is not given here.
Outcome codes: 1.0 for active, 0.0 for inactive

compound	class-label
C#C[C@]1(O)CC[C@H]2[C@@H]3CCc4cc(O)ccc4[C@H]3CC[C@@]21C	0.0
Cc1nnc2n1-c1ccc(Cl)cc1C(c1ccccc1Cl)=NC2	0.0
c1ccc(-c2ccc(-c3ccccc3)cc2)cc1	0.0
O=S1(=O)OC(c2cc(Br)c(O)c(Br)c2)(c2cc(Br)c(O)c(Br)c2)c2c(Br)c(Br)c(Br)c(Br)c21	0.0
O=C(CCl)CCl	1.0
O=C(CBr)c1ccccc1	0.0
CNC(=O)Nc1ccccc1	0.0
c1ccc2c(c1)OCCOCCOCCOCCO2	0.0
CCCC(O)C(CC)CO (centres undefined)	0.0

* * *

Tested on: CCRIS mutagenicity, Ames/micronucleus/aberration tests
Experiment: CCRIS mutagenicity studies
Conditions: Test System: AMES SALMONELLA TYPHIMURIUM; Strain/Indicator: TA100; Metabolic Activation: NONE; Method: STANDARD PLATE
Excerpt: The CCRIS database contains chemical records with carcinogenicity, mutagenicity, tumor promotion, and tumor inhibition test results. It was developed by the National Cancer Institute (NCI). Data are derived from studies cited in primary journals, current awareness tools, NCI reports, and other sources. Test results have been reviewed by experts in carcinogenesis and mutagenesis. CCRIS provides historical information from the years 1985 - 2011. It is no longer updated. […]
Activity calls are given as the source filed them. How the calls were made is not given here.

compound	mutagenic call
O=C(CC(O)(CC(=O)OCCBr)C(=O)OCCBr)OCCBr	inactive; negative
Nc1cc(Cl)cc(Cl)c1O	inactive; negative
CCOc1ccc(NC(C)=O)cc1N	inactive; negative
c1ccc2c(OCC3CO3)nsc2c1 (stereo not given)	active; positive
c1ccc2c(c1)ccc1c3ccccc3ccc21	inactive; negative
CCOC(=O)C(C)=O	inactive; negative
CCCCOCCOCCO	inactive; negative
C=C(C)C1CO1 (stereo not given)	inactive; negative
Cc1occc(=O)c1[O-].Cc1occc(=O)c1[O-].Cc1occc(=O)c1[O-].[Cr+3]	inactive; negative
Cc1cc(N)c(C)cc1N	inactive; negative
CCCN(C(=O)CCCl)c1snc2ccccc12	inactive; negative
O=C(O)COc1ccc(C(=O)c2cccs2)c(Cl)c1Cl	inactive; negative
CN1C(=O)CC(=O)N(c2ccccc2)c2cc(Cl)ccc21	inactive; negative
c1ccc2c(CCC3CO3)cccc2c1 (stereo not given)	active; positive
CC1=C[C@H](O)[C@H]2C[C@@H]1C2(C)C	inactive; negative
O=[N+]([O-])c1cccc2c1ccc1ccccc12	active; positive
ClCc1cccc2cc3ccc4cccc5ccc(c12)c3c45	active; positive
C(CC1CO1)C1CO1 (stereo not given)	active; positive
O=C(CCl)CCl	active; positive
CN1CCCC1=O	inactive; negative
CN(C)c1ccc(C(=C2C=CC(=[N+](C)C)C=C2)c2c(O)c(S(=O)(=O)[O-])cc3cc(S(=O)(=O)O)ccc23)cc1	inactive; negative
CC1Cc2cccc3c2N1C(C)C3.CC1Cc2cccc3c2N1C(C)C3.[Cl-].[Cl-].[Cl-].[Cl-].[Pt+2].[Pt+2] (stereo not given)	inactive; negative
Oc1cc(Cl)c(Cl)cc1Cl	active; positive
O=C(CBr)NCc1ccccc1	inactive; negative
c1cc2ccc3ccc4ccc5cccc6c(c1)c2c3c4c56	inactive; negative
CCCCC/C=C/C=C/C=O	inactive; negative
C#C[C@]1(OC(C)=O)CC[C@H]2[C@@H]3CCC4=CC(=O)CC[C@@H]4[C@H]3CC[C@@]21C	inactive; negative
ClC(Cl)=C(Cl)c1c(Cl)c(Cl)c(Cl)c(Cl)c1Cl	inactive; negative
O=NN(c1ccc([N+](=O)[O-])cc1)C1OC[C@@H](O)[C@@H](O)[C@H]1O (stereo not given in full)	active; positive
O=C(C(Cl)Cl)C(Cl)(Cl)Cl	active; positive
CNP1(NC)=NP(NC)(NC)=NP(NC)(NC)=N1	inactive; negative
CSc1ncnc2nc[nH]c12	active; positive
CN(C)CCC=C1c2ccccc2CCc2ccccc21	inactive; negative
COc1cc(-c2ccc(N=C=O)c(OC)c2)ccc1N=C=O	inactive; negative
CC(=O)OCc1c2ccccc2cc2c1ccc1ccccc12	active; positive
